B1: tRNA (parent)
chain: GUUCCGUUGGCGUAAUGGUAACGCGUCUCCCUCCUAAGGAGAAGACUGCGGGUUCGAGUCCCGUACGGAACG

Variants of: B1
Experimental Protocol: yeast fitness relative to wild type (ratio to wild type); higher = fitter; tRNA-Arg(CCU), competitive growth, 37 C, YPD
Variants at the floor of the assay were thinned out.
As shown below, each of these variants has a reported yeast fitness value.
Please reply with the number alone, leaving off any unit.

Examples from the recorded data:
[
  {
    "Mutation List": "C24G A69C",
    "yeast fitness": 0.617
  },
  {
    "Mutation List": "C34U C46G A69U",
    "yeast fitness": 0.576
  },
  {
    "Mutation List": "A45C U53A",
    "yeast fitness": 0.727
  },
  {
    "Mutation List": "U19A C22G G23C C30G C34A",
    "yeast fitness": 0.519
  },
  {
    "Mutation List": "U13A C29U C31U G50C",
    "yeast fitness": 0.508
  },
  {
    "Mutation List": "C4U G38C A65G",
    "yeast fitness": 0.621
  }
]

Give its yeast fitness value. Item: A57U U64A
0.678

Repeat for the following variant: G63C A69U
0.709

Input G25A C31G
0.906

Another: G18A C46U U59C G68A
0.53

What do you get for U2A C46U ?
1.06
